B1: NEK8 (parent)
chain: YTFGSNQHGQLGTNTRRGSRAPCK

- Variants of: B1
- EXPERIMENT NOTES: protein stability index of a GFP-peptide fusion (GPS, HEK-293T) (PSI 1-6); higher = more stable;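 note: lentivirally expressed fusions sorted by FACS into six bins by GFP to DsRed ratio, PSI derived from sequencing read proportions per bin multiplied by bin number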
- TEST CONDITIONS: c terminus: a fixed tail appended
Known protein stability index of a selection of variants
Provide a numeric answer; units are not to be included.

Reference set (5 entries):
>>> df
   alteration  observed_value
0        A21L            3.54
1        C23A            3.95
2         G4Y            3.42
3         S5M            4.11
4        N14K            3.88

Quickly give me recorded protein stability index for `R16T`
4.21

Quickly give me recorded protein stability index for `Q7K`
3.8

Quickly give me recorded protein stability index for `S19E`
3.72

Quickly give me recorded protein stability index for `H8N`
3.99

Quickly give me recorded protein stability index for `R16L`
3.82

Quickly give me recorded protein stability index for `C23K`
4.21

Quickly give me recorded protein stability index for `G18Q`
3.27

Quickly give me recorded protein stability index for `P22T`
3.95

Quickly give me recorded protein stability index for `K24P`
4.09

Quickly give me recorded protein stability index for `Q7P`
3.81

Quickly give me recorded protein stability index for `Q7T`
4.28

Quickly give me recorded protein stability index for `N6C`
3.78

Quickly give me recorded protein stability index for `Y1G`
5.09

Quickly give me recorded protein stability index for `T13Q`
4.35

Quickly give me recorded protein stability index for `G12Y`
3.83

Quickly give me recorded protein stability index for `Q10E`
4.33

Quickly give me recorded protein stability index for `H8M`
3.75
